- Assay info: yeast display, Sf9 membrane polyspecificity reagent, FACS + sequencing; frameworks hold sequencing errors

- Chain: "QVQLVESGGGLVQAGGSLRLSCAASGSTFNRYAMGWYRQAPGKERELVAAITRSGTSTYYADSVKGRFTISRDNAKNTVYLQMNSLKPEDTAVYYCAAVRYAVHFSYDYWGQGTQVTVSS"
  polyreactivity (PSR sort gate): "high polyreactivity"
- Chain: "QVQLVESGGGLVQAGGSLRLSCAASGRIFYFYAMGWYRQAPGKERELVAAISRRGGTTNYADSVKGRFTISRDNAKNTVYLQMNSLKPEDTAVYYCAADYQSVGGAEYDYWGQGTQVTVSS"
  polyreactivity (PSR sort gate): "high polyreactivity"
- Chain: "QVQLVESGGGLVQAGGSLSLSCAASGSPFLYYTMGWYRQAPGKERELVATISRDGSTNYADSVKGRFTISRDNAKNSVYLQMNSLKPEDTAVYYCAAARDSIGYGQYDYWGQGTQVTVSS"
  polyreactivity (PSR sort gate): "low polyreactivity"
- Chain: "QVQLVESGGGLVQAGGSLRLSCAASGSIFYRYTMGWYRQAPGKERELVAVISRRGGSTYYADSVKGRFTISRDNAKNTVYLQMNSLKPEDTAVYYCAVRQYRTSVRQGNTLWDDYWGQGTQVTVSS"
  polyreactivity (PSR sort gate): "high polyreactivity"
- Chain: "QVQLVESGGGLVQAGGSLRLSCAASGRIFENNAMGWYRQAPGKERELVAAITSSGGRTYYADSVKGRFTISRDNAKNTVYLQMNSLIPEDTAVYYCNAYQYYERYDTYLFRYDYWGQGTQVTVSS"
  polyreactivity (PSR sort gate): "low polyreactivity"

* * *

- Assay info: yeast display, Sf9 membrane polyspecificity reagent, FACS + sequencing; frameworks hold sequencing errors
Assay readout: polyreactivity (PSR sort gate)

- Chain: "QVQLVESGGGLVQAGGSLRLSCAASGSTFGHYAMGWSRQAPGKERELVAAISWSGASTYYADSVKGRFTISRDNAKNTVYLQMNSLKPEDTAVYYCATVGPWPGEYDYWGQGTQVTVSS"
  Assay value: "low polyreactivity"
- Chain: "QVQLVESGGGLVQAGGSLRLSCAASGLTIVGNAMGWYRQAPGKERELVASISSRGGSTYYADSVKGRFTISLDNSKNTVYLQMNSLNPEDTAVYYCAAGNSYGVRLLYQIVTRYYWGQGTQVTVSS"
  Assay value: "high polyreactivity"
- Chain: "QVQLVESGGGLVQAGGSLRLSCAASGFILTSNAMGWYRQAPGKERELVAAITRNGARTYYADSVKGRFTISRDNAKNTVYLQMNSLKPEDTAVYYCAAETVSYWWWGQDIPYYYWGQGTQVTVSS"
  Assay value: "high polyreactivity"
- Chain: "QFQLVESVGGLVQAGGILRLSCAASGRNYNSYAMGWYRKAPGKERELVAAISRTGASTYYSDSVKGRFTISRDNAKNTVYLQMNSLKPEDTAVYYCAADANSGDGYYWGQGTQVTVSS"
  Assay value: "high polyreactivity"
- Chain: "QVQLVESGGGLVQAGGSLRLSCASSGRIFRSYAMGWYRQAPGKERELVAAISSGGGSTYYADSVKGRFTISRDNAKNTVYLQMNSLKPEDTAVYYCNTDFYYDDVSQAHDYWGQGTQVTVSS"
  Assay value: "high polyreactivity"
- Chain: "QVQLVESGGGLVQAGGSLRLSCAASGRTFWYYAMGWYRQAPGKEREFVAAISYSGDGTYYADSVKGRFTISRDNAKNTVYLQMNSLKPEDTAVYYCAAEWYDPTLPTAWSEYEYWGQGTQVTVSS"
  Assay value: "high polyreactivity"
- Chain: "QVQLVESGGGLVQAGGSLRLSRAASGFTWSYAMGWYRQAPGKERELVATISDGVSTNYADSVKGRFTISRDNAKNTVYLQRNSLKPEDTAVYYCAAEIPRRWASFATLWYDYWGQGTQVTVSS"
  Assay value: "low polyreactivity"
- Chain: "QVQLVDSGGGLVQSGGSLSLSCAASGFNFWPYAMGWYREAPGKEREFVAAITRTGGSTSYADSVKGRFTISRDNAKNTVYLQINSLKPEDTAVYYCAATSYYRTNYGLVFQYRRNYGGQGTQVTVSS"
  Assay value: "high polyreactivity"
- Chain: "QVQLVESGGGLVQAGGSLRLSCAASGFTFWEYALGWYRQAPGKERELVAAISRGTSTYYADSVKGRFTIPRDNAKNTVYLQMNSLKPEDTAVYYCAARQDPPLGYDYWGQGTQVTVSS"
  Assay value: "low polyreactivity"
- Chain: "QVQLVESGGGLVQAGGSLRLSCAASGSILRYTMGWYRQAPGKEREWVAAITRSGTSTYYADSVKGRFTISRDNAKNTVYLQMNSLKPEDTAVYYCAASAGPRASYYYWGQGTQVTVSS"
  Assay value: "high polyreactivity"
- Chain: "QVQLVESGGGLVQAGGSLRLSFAASGFNFEWYTMGWYRQAPGKEMELVADISGDGSTYYAVSVKGRFTISRDNAKNTVYLQMNSLKPEDTAVYYCAASFWGIAMGYWGQGTQVTVSS"
  Assay value: "high polyreactivity"
- Chain: "QVQLVESGGGLVQAGGSLRLSCAPSGLTYLYAMGWYRQAPGKETELVAAISSSGGSTYYADSVKGRFTISRDNAKNTVSLQMNSLNPEDTGVYYCAAYTRGWLGYDYWGQGTQVTVSS"
  Assay value: "high polyreactivity"
- Chain: "QVQLVESGGGLVQAGGSLRLSCAASGSTFQFYAMRWYRQAPGKERDLVAAIRSSDDSTYYADSVKGRFTISRDNAKNTVYLQMKSLKPEDTAVYYCAAVLDFYGVWYDYWGQGTQVTVSS"
  Assay value: "high polyreactivity"
- Chain: "QVQLVESGGGLVQAGGSLRLSCAASGSTFDVYAMGWYRQAPGKERELVAAITWIGGSTYYADSVKGRFTISRDNAKNTVYLQMNSLKPDDTAVYYCARHDYGWVDYWGQGTQVTVSS"
  Assay value: "high polyreactivity"
- Chain: "QVQLVESGGGLVQAGGSLRLSCAACGSIFPAYAMGWYRQAPGKERELVASITGSGGSTYYADSVKGRFTISRDNAKNTVYLQMNSLKPEDTAVYYCNARYYVYSATVDRYYHFYYWGQGTQVTVSS"
  Assay value: "high polyreactivity"
- Chain: "QVQLVESGGGLVQAGGSLRLSCASSGSTFYPNAMGWYRQAPGKERELVAAISRSGGSTYYADSVKGRFTISRDNAKNTVYLQMNSLKPEDTGVYYCAADGRSPSRYDYWGQGTQVTVSS"
  Assay value: "low polyreactivity"
- Chain: "QVQLVESGGGLVQAGGSLRLSCAASGLTLTHYAMGWYRQAPGKERELVATISRSGGRTYYADSVKGRFTISRDNAKNTVYLQMNSLKPEDTAVYYCNAEYYYGRGWYDYWGQGTQVTVSS"
  Assay value: "high polyreactivity"
- Chain: "QVQLVESGGGLDQAGGSLRLSCAASGFTFYPYAMGWYRQAPGKERELVASITSAGGTNYADSVKGRFTISRDNAKNTVYVQLNSLKPEDTAVYYCAAKYRSRGPDYYFNSDYWGQGTQVTVSS"
  Assay value: "low polyreactivity"
- Chain: "QVQLVESGGGLVQAGGSLRLSCAASGSTFGKYAMGWYRQATGKERELVAAITNGGRTNYADSVKGRFTISRDNAMNTVYLQMNSMKPEDTAVYYCNKARYGTDDYDYWGQGTQVTVSS"
  Assay value: "low polyreactivity"
- Chain: "QVQLVESGGGLVQAGGSLRLSSASSGSTFPGYTMRWYRPAPGKARELVAYITASDSSTYYADSEKGRFTISRDNAKNTVYLQINSLKPEDTAVYYSAKPPRHTWSFVDYRYEYWGQGTQGTVSS"
  Assay value: "low polyreactivity"
- Chain: "QDQLVESGGGLVQAGGSLRLSCAASGRTIFRNAMGWYRQAPGKERELVAAITWSGGSTYYADSVKGRFTISRDNAKNTVYLQMNSLKPEDTAVYYCNRKRYGSDYEYWGQGTQVTVSS"
  Assay value: "low polyreactivity"

* * *

- Assay info: yeast display, Sf9 membrane polyspecificity reagent, FACS + sequencing; frameworks hold sequencing errors

- Chain: "QLQLEESGGGLVQAGGSLRLSSAASGSIFYPNVMGWYRQAPGKERELVAAISWGGTSTNYADSVKGRFTISRDNAKNTVYLQMNSLKPEDTAVYYCAARTYWYGYNYWGQGTQVTVSS"
  polyreactivity (PSR sort gate): "high polyreactivity"
- Chain: "QVQLVESGGGLVQAGGSLRLSCAASGRIFAYNTMGWYRQAPGKERELVAVITSGGSTNYADSVKGRFTISRDNAKNTVYLQMNSLKPEDTAVYYCNADPRLRQTRDYWGQGTQVTVSS"
  polyreactivity (PSR sort gate): "high polyreactivity"
- Chain: "QVQLVESGGGLVQAGGSLRLSCAASGSIFTPYAMGWYRQAPGKERELVAAITYSGGSTYYADSVKGRFTISRDNAKNTVYLLMNSLKPEDTAVYYCAAYFNIYGLEYDYWGQGTQVTVSS"
  polyreactivity (PSR sort gate): "high polyreactivity"
- Chain: "QDQLVESGGGLVQAGGSLRLSCAASGRIFLYNAMGWYRQAPGKERELVAAIDGGGTTYADSVKGRFTISRDNAKNTVYLQMNSLKPEDTAVYYCAADWYYQYSIYRYGYWGQGTQVTVSS"
  polyreactivity (PSR sort gate): "low polyreactivity"
- Chain: "QVQLVESGGGLVQAGGSLRLSCAASGSTFYRNAMGWYRQAPGKERELVAAISSTGGSTYYADSVKGRFTISRDNAKNTVYLQMNSLKPEDTAVYYCARDYSWLTRGSDYDYWGQGTQVTVSS"
  polyreactivity (PSR sort gate): "low polyreactivity"
- Chain: "QVQLVESGGGLVQAGGSLRLSCAASGRIFLWYAMGWYRQAPGKERELVAAISSNGGSTRYADSVKGRFTISRDNAKNTVYLQMNSLKPVDNAVYYCNADVHWNRYPYGGNGYGYWGQGTQVTVSS"
  polyreactivity (PSR sort gate): "low polyreactivity"
- Chain: "QVQLEESGGGLVQAGGSLRLICAAYGSIIPYNAMGWYRQQPGEFVDAISYSSGSTYYADSVKGRFTISRDNAKNTVYLQMNSLKPEDTAVYYCAAGSWYPPSYVWLRRYDYWGQGTQVTVSS"
  polyreactivity (PSR sort gate): "low polyreactivity"
- Chain: "QVQLVESWGGLVQAGGSLRLSCAASGRIFYGYAMAWYRQAPGKEREFVAAITVSAGSTYYADSVKGRFTISRDNAKNTVYLQMNSLKPEDTEVYYCAAKRYVYTSYRFVYWGQGTQVTVSS"
  polyreactivity (PSR sort gate): "low polyreactivity"
- Chain: "QVQLVESGGGLVQAGGSLRLSCAASGNIFPPYAMGWYRQAPGKERELVAAITRSGASTYYADSVKGRFTISRDNAKNTVYLQMNSLKPEDTAVYYCAVGVPGGYWKYYYWGQGTQVTVSS"
  polyreactivity (PSR sort gate): "high polyreactivity"
- Chain: "QVQLVESGGGLVQAGGSLRLSCAASGSTFGVYAMGWYRQAPGKERELVAAISGSGAGTYYADSVKGRFTISRDNAKNTVYLQMNSLKPEDTAVYYFNKVSVRGQRYGYWGQGTQVTVSS"
  polyreactivity (PSR sort gate): "high polyreactivity"
- Chain: "QVQLVESGGGLVQAGGSLRVSCAASGSTIITNAMGWYRQATGKERELVAAITYSTGATYYADSVKGRFTISRDNAKNTVYLQMNSQKPEDTACYYCAALLYFFMIDYWGQGTQETVSS"
  polyreactivity (PSR sort gate): "low polyreactivity"
